- Test system: MARK2;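 further: KINOMEscan scanMAX binding as percent activity remaining versus control; lower means stronger binding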
- settings: Compound Concentration (nM):1000
measureName: Percent Control (%)
Only the number, expressed in %, is required.

Value lookup for Percent Control; key = Cl.O=C(Nc1ccc(Oc2ccc3[nH]c(NC(=O)c4ccco4)nc3c2)cc1)Nc1cc(C(F)(F)F)ccc1F [GW683134A]
100

Looking for the measured Percent Control of COc1ccccc1-c1cc(/C=C2\C(=O)Nc3ncc(Br)cc32)cc(Br)c1O [GW442130X] , can you help?
100

Quick one: Percent Control for COc1cc2ncn(-c3cc(O[C@H](C)c4ccccc4Cl)c(C(N)=O)s3)c2cc1OC [GSK237701A] ?
100

Would you kindly share the measured Percent Control for O=C(Nc1n[nH]c2nc(-c3ccc(O)cc3)c(Br)cc12)C1CC1 ?
100

// lookup Percent Control for COc1ccc2cc(-c3c(-c4ccncc4)nc(-c4ccc(S(C)(=O)=O)cc4C)n3C)ccc2c1
93

May I ask what Percent Control has been recorded for COc1cc(/C=N/Nc2ncnc3[nH]ncc23)ccc1O [GW578748X] ?
100

Can you share its Percent Control? I mean this compound: Cl.O=C(O[C@H]1CN[C@H](C#Cc2cc3ncnc(Nc4ccc5c(cnn5Cc5ccccc5)c4)c3s2)C1)N1CCOCC1 [GSK200398A]
87

Given the compound COc1ccc2[nH]c3c4[nH]c5ccc(OC)cc5c4c4c(c3c2c1)C(=O)NC4=O [GW296115X] , what is its reported Percent Control?
71

If you can, please state the reported Percent Control value of Cl.O=S1CCN(Cc2ccc(-c3ccc4ncnc(Nc5ccc(OCc6ccccc6)c(F)c5)c4c3)o2)CC1 [GW576924A] .
100

Please look up its Percent Control: C/C(Nc1ccc(S(N)(=O)=O)cc1)=C1/C(=O)Nc2ccccc21 [GW335962X]
72

Bench note: what Percent Control did COc1cc(C)c(N(C)C(=O)CN(C)C)cc1Nc1nc(Nc2cccc(F)c2C(N)=O)c2cc[nH]c2n1 show?
95

Requested field: Percent Control. Item: C[C@@H](Oc1cc(-n2cnc3ccc(OC4CCN(C)CC4)cc32)sc1C(N)=O)c1ccccc1Cl [GSK579289A]
77

Give the measured Percent Control of Cc1cc(O)cc(C)c1/C=C/c1cncc(C(N)=O)c1 [GW435821X] .
100

Report Percent Control for CCS(=O)(=O)c1ccc(OC)c(Nc2ncc(-c3cccc(F)c3)o2)c1 [GW621970X] please.
100

State the recorded Percent Control for this entry: Cl.c1ccc(Cc2nc3ccc(Nc4ncnc5ccccc45)cc3[nH]2)cc1 [GR269666A]
100

# query: Percent Control of entry NS(=O)(=O)c1ccc(Nc2ncc(-c3ccccc3)o2)cc1 [GW572399X]
100

Give its Percent Control value. Item: CN(C)c1cc2c(Nc3ccc4c(cnn4Cc4ccccc4)c3)ncnc2cn1 [GW282974X]
97

Name the recorded Percent Control for NS(=O)(=O)c1ccc(N/N=C2\C(=O)Nc3ccc(C(=O)NCCc4c[nH]cn4)cc32)cc1 [GW300660X] .
100

Form field: reported Percent Control of CCn1c(-c2nonc2N)nc2c(C#CC(C)(C)O)nc(OCCNC)cc21.Cl
90
